Test target: Man(a1-2)Man(a1-3)[Man(a1-2)Man(a1-6)]Man(a1-6)[Man(a1-2)Man(a1-2)Man(a1-3)]Man(b1-4)GlcNAc(b1-4)GlcNAc
Run description: glycan array binding signal (z-score within array); higher = stronger binding
Reported conditions: glycan notation: IUPAC condensed, linker removed
This excerpt belongs to a sample that is enriched for the strongest signals.
Parameter: glycan array binding signal (z-score)

Fill in the blank: the reported glycan array binding signal (z-score) of LlpA1 (Pseudomonas fluorescens), Q4KHC3 (protein) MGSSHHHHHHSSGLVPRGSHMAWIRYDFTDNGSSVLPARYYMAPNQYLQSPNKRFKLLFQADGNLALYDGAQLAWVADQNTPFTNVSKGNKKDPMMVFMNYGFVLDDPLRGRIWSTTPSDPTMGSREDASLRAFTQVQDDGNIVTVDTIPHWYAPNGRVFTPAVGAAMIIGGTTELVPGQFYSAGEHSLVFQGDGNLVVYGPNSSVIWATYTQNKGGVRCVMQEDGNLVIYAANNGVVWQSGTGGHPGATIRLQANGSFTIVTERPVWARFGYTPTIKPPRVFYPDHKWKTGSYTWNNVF is ____.
0.448
